assay: NCI Yeast Anticancer Drug Screen. Data for the mec2-1 strain (AID 157); details: S. cerevisiae mec2-1 strain, at 5.0 µM (retest, dose inferred, filed as 0.5), active compounds read high
The panel holds about 79,000 compounds, 15% with a hit somewhere; the sample as a whole holds those more often.
Field: growth inhibition. Provide a value for each of the compounds that follow.
One number for each entry, in %.

Example entries and their recorded answers appear below.
Compound: CCCN1CN(C(C(=O)N[C@@H]2C(=O)N3C(C(=O)O)=C(C)CSC23)c2ccccc2)CSC1=S (stereo partly specified)
growth inhibition [%]: -11
--
Compound: Brc1ccc2[nH]c3ccccc3c2c1
growth inhibition [%]: -4
--
Compound: N#Cc1c(N)nc2c(N=Nc3ccccc3)c(N)nn2c1Nc1ccccc1
growth inhibition [%]: -2
--
Compound: CC1=C/C(=C\c2ccc([N+](=O)[O-])o2)C(=O)O1
growth inhibition [%]: 86

Please look at the items below and tell me growth inhibition for each one, in order.
1. CCCCC#CCCOC(=O)C#CCCCC
2. O=[N+]([O-])c1ccccc1NC1CCN(CCCC2(c3ccc(F)cc3)OCCO2)CC1
3. O=C(O)c1ccccc1NC(c1ccccc1)c1ccc2cccnc2c1O (stereo unspecified)

Marked response:
1
7
-3

Please look at the items below and tell me growth inhibition for each one, in order.
1. COc1ccc(C(=O)Cc2ccc(Cl)cc2)cc1OC
2. O=C1C(=O)c2ccc(Br)cc2C(O)=C1C(c1ccccc1)c1ccccc1

Marked response:
1: -7; 2: 28

Please look at the items below and tell me growth inhibition for each one, in order.
1. O=C(O)c1ccc2ccccc2c1C(=O)c1cccc2ccccc12
2. c1ccc(OCC2c3ccccc3Nc3ccccc32)cc1

Marked response:
1. 1
2. 99

###

Field: growth inhibition. Provide a value for each of the compounds that follow.
assay: NCI Yeast Anticancer Drug Screen. Data for the mec2-1 strain (AID 157); conditions: S. cerevisiae mec2-1 strain, at 5.0 µM (retest, dose inferred, filed as 0.5), active compounds read high
About 79,000 compounds went through this panel and 15% of them were active in at least one assay; those are over-represented in the sample as a whole.
Answers are plain numbers, in %.

Please look at the items below and tell me growth inhibition for each one, in order.
1. CC(C)=NNc1ncnc2nc[nH]c12
2. O=C(O)/C(=C\c1cc(I)c(O)c(I)c1)c1ccc(I)cc1
3. Oc1cc(C(c2ccccc2)c2ccccc2)c2ccccc2c1O
4. [O-][n+]1c(-c2ccccc2)c(Cl)c(-c2ccccc2)n1O
5. COc1ccc(/C=C(\C(=O)c2ccc(O)cc2)c2ccccc2)cc1OC
6. NC(=O)c1cccn1Cc1ccccc1SSc1ccccc1Cn1cccc1C(N)=O

Marked response:
1: -1; 2: 42; 3: 26; 4: 0; 5: -9; 6: 31

###

assay: NCI Yeast Anticancer Drug Screen. Data for the cln2 rad14 strain (AID 165);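 further: 0% = growth equal to vehicle treated cultures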; conditions: S. cerevisiae cln2 rad14 strain, at 5.0 µM (retest, dose inferred, filed as 0.5), active compounds read high
This is part of a sample that, as a whole, favours compounds with a hit. Of some 79,000 tested, about 15% had one in any assay.
Assign class by growth inhibition: not lower than 20% means yes; lower than 20% means no.

See these solved cases before continuing.
Molecule: CCN(CC)CCSCCCNc1cc(OC)cc2cccnc12
Assigned category: no

Molecule: C=C(Br)CN1CCC2(c3ccccc3)C(O)C([Se]c3ccccc3)CCC12 (centres undefined)
Assigned category: yes

Molecule: CN(C)C(=S)/N=c1\ss/c(=N\S(=O)(=O)c2ccccc2)n1-c1ccccc1
Assigned category: no

Molecule: N#Cc1ncc(Cl)cc1[N+](=O)[O-]
Assigned category: yes

Molecule: CCCCC(O)CCCC
Assigned category: no

Molecule: COc1ccc(/C(Cl)=C(\C=O)c2ccc(Cl)cc2)cc1
Assigned category: no

Molecule: FC(F)(F)c1ccc(Nc2ccc(C(F)(F)F)cc2)cc1
Assigned category: no

Molecule: C=C1C(=O)OC(CCCCCCCCCCCCC)C1C(=O)O (centres undefined)
Assigned category: yes

Exam item: Does the molecule CCCCCCCCCCCCCCCC[N+](C)(C)CCl have recorded growth inhibition that is 20% or more?
Marked response: yes

Exam item: Does the molecule CSC(=S)n1nc(-c2ccccc2)c(N=Nc2ccccc2[N+](=O)[O-])c1C have recorded growth inhibition that is 20% or more?
Marked response: no
